The reported measurements were obtained from paper PMC7588595.

Catalogue of Plate 1 (% conversion) readings, one per entry.
Target: human AspH (His6-AspH315–758) (Homo sapiens, UniProt Q12797)
Construct: N-Terminally His6-tagged human AspH315–758 (His6-AspH315–758) was produced in Escherichia coli BL21 (DE3) cells; made in house; host or cells: Escherichia coli BL21 (DE3), pET-28a(+) vector
Sequence (Q12797 315-758): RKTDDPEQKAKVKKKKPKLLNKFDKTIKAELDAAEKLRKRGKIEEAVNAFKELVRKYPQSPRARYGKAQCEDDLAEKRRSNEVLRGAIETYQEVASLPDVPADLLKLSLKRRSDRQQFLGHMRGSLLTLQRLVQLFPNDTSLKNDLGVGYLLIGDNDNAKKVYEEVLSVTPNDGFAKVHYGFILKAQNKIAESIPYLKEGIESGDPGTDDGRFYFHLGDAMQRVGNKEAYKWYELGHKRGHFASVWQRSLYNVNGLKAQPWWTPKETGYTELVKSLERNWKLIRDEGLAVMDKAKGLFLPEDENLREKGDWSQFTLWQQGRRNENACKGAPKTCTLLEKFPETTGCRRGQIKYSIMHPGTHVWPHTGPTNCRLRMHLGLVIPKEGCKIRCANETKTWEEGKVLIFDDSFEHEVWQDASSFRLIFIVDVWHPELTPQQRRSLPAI
Experiment: SPE-MS AspH inhibition assay (hFX-CP101-119 substrate hydroxylation)
Type: biochemical
Conditions: AspH-inhibitor screening, 384-well Plate 1, substrate conversion
Kindly answer with a numeric value in %, unit omitted.

Cn1cncc1[C@@](N)(c1ccc(Cl)cc1)c1ccc2c(c1)c(-c1cccc(Cl)c1)cc(=O)n2C [Tipifarnib (Zarnestra)] :: 80.70

Field Plate 1 (% conversion) (entry COCCn1c2c([n+](Cc3cnccn3)c1C)C(=O)c1ccccc1C2=O ) reads 62.30

The compound listed as C[C@@H]1CCN(C(=O)CC#N)C[C@@H]1N(C)c1ncnc2[nH]ccc12 shows Plate 1 (% conversion) equal to 45.30
